Reference for the values: patent US20250215029A1

- Tested On: pY705-STAT3 in PBMC (Homo sapiens)
- Construct: Cryopreserved Peripheral Blood Mononuclear Cells (PBMC) are from AllCells; host or cells: cryopreserved PBMC
- Sequence (P40763 whole entry): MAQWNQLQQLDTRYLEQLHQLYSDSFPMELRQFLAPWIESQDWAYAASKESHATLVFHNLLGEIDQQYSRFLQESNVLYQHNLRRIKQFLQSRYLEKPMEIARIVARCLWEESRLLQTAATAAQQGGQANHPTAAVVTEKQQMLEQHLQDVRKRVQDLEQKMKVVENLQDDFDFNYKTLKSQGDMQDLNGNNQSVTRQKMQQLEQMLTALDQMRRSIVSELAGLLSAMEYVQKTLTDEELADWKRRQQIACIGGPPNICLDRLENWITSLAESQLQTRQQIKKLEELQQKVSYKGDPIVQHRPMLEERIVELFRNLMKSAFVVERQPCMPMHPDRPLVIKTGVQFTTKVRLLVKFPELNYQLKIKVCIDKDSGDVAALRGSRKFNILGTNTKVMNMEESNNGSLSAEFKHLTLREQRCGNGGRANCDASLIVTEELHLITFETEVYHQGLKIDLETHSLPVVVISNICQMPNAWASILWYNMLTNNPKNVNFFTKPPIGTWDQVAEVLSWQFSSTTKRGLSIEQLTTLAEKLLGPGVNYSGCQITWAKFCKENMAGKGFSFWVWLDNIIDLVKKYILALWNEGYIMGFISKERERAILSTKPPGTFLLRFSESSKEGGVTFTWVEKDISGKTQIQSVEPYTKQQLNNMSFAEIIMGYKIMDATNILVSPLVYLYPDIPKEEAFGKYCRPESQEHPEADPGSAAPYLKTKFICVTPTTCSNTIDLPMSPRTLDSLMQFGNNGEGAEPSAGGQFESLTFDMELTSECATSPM
- Procedure Text: MSD-pSTAT-PBMC Assay (pSTAT3, IL-6 stimulated)
- Assay type: cell-based
- Protocol Conditions: PBMC, compound 3 hrs, then 10 ng/mL IL-6 for 10 min; Table 1114; read-out: pSTAT3
Reported Property: IC50

- Molecule: "CC(C)(C)C(=O)SCCOP(=O)(OCCSC(=O)C(C)(C)C)C(F)(F)c1ccc2sc(C(=O)N[C@H]3CCC4(CC4)C[C@H]4CC[C@@H](C(=O)N5CC(c6cccnc6)C5)N4C3=O)cc2c1"
  Tested On: "pY705-STAT3 in PBMC (Homo sapiens)"
  Reported Property: "IC50"
  Value Observed: "< 100 nM"
- Molecule: "CC(C)(C)C(=O)OCOP(=O)(OCOC(=O)C(C)(C)C)C(F)(F)c1ccc2ccc(C(=O)N[C@H]3CCCC[C@H]4CC[C@@H](C(=O)N5C[C@H](c6ccccc6)[C@@H](C#N)C5)N4C3=O)cc2c1 (relative stereo)"
  Tested On: "pY705-STAT3 in PBMC (Homo sapiens)"
  Reported Property: "IC50"
  Value Observed: "100 to 1000 nM"
- Molecule: "CC(C)OC(=O)[C@H](C)NP(=O)(Cc1ccc2sc(C(=O)N[C@H]3CCCC[C@H]4CC[C@@H](C(=O)N5C[C@H](c6cc[nH]c(=O)c6)[C@@H](C#N)C5)N4C3=O)cc2c1)Oc1ccccc1 (single isomer, unassigned)"
  Tested On: "pY705-STAT3 in PBMC (Homo sapiens)"
  Reported Property: "IC50"
  Value Observed: "> 3000 nM"
- Molecule: "CC(C)(C)C(=O)SCCOP(=O)(OCCSC(=O)C(C)(C)C)C(F)(F)c1ccc2sc(C(=O)N[C@H]3C[C@@H](O)CC[C@H]4CC[C@@H](C(=O)N5C[C@@H](C#N)[C@H](c6ccccc6)C5)N4C3=O)cc2c1 (single isomer, unassigned)"
  Tested On: "pY705-STAT3 in PBMC (Homo sapiens)"
  Reported Property: "IC50"
  Value Observed: "> 3000 nM"

----------
pIC50 values by entry
- Tested On: Recombinant STAT3 protein (STAT3 (G127-I722)) (Homo sapiens, UniProt P40763)
- Construct: Recombinant STAT3 protein (STAT3 (G127-I722))
- Sequence (P40763 127-722): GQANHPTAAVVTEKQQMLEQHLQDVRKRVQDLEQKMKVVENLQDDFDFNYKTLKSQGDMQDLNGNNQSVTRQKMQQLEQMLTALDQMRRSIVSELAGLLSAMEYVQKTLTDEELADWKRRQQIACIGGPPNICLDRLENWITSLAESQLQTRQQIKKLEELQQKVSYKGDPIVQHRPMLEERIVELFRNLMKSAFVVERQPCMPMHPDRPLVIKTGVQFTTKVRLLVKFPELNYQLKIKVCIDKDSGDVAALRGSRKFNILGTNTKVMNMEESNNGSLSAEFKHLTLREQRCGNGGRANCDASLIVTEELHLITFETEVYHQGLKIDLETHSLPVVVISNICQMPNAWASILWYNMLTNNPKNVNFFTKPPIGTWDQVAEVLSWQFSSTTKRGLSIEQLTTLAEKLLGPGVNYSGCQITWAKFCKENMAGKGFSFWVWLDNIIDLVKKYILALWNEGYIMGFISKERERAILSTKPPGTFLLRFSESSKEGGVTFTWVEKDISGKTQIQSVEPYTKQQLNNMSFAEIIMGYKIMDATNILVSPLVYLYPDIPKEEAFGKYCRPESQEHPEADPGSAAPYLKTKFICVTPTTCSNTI
- Procedure Text: STAT3 Fluorescence Polarization (FP) Assay
- Type: binding
- Protocol Conditions: STAT3 (G127-I722) 25 nM, probe 5-FAM-GpYLPQTV-NH2 2 nM, 45-minute incubation; read-out: STAT3 (FP assay IC50 class)
pIC50: −log10 of the molar value.
Reported Property: pIC50

- Compound: "Cc1nccc(F)c1C1CN(C(=O)[C@@H]2CC[C@@H]3CCC[C@H](NC(=O)c4cc5cc(CP(=O)(O)O)ccc5s4)C(=O)N32)C1"
  Reported Property: "pIC50"
  Value Observed: "5.00 to 6.00"
- Compound: "N#C[C@@H]1CN(C(=O)[C@@H]2CC[C@@H]3CCCC[C@H](NC(=O)c4cc5cc([C@H](F)P(=O)(O)O)ccc5s4)C(=O)N32)C[C@H]1c1cc[nH]c(=O)c1 (single isomer, unassigned)"
  Reported Property: "pIC50"
  Value Observed: "6.00 to 7.00"
- Compound: "O=C(N[C@H]1CCC[C@H]2CC[C@@H](C(=O)N3CC(c4cc(F)ccc4F)C3)N2C1=O)c1cc2cc(C(F)P(=O)(O)O)ccc2s1 (stereo partly shown)"
  Reported Property: "pIC50"
  Value Observed: "6.00 to 7.00"
- Compound: "Cn1cnnc1C1(O)CN(C(=O)[C@@H]2CC[C@@H]3CCC[C@H](NC(=O)c4cc5cc(C(F)(F)P(=O)(O)O)ccc5s4)C(=O)N32)C1"
  Reported Property: "pIC50"
  Value Observed: "6.00 to 7.00"
- Compound: "O=C(N[C@H]1CCC[C@H]2CC[C@@H](C(=O)N3CC(c4cncnc4N4CCC4)C3)N2C1=O)c1cc2cc([C@@H](F)P(=O)(O)O)ccc2s1 (single isomer, unassigned)"
  Reported Property: "pIC50"
  Value Observed: "> 7.00"
- Compound: "CCOc1ccncc1C1CN(C(=O)[C@@H]2CC[C@@H]3CCC[C@H](NC(=O)c4cc5cc([C@@H](F)P(=O)(O)O)ccc5s4)C(=O)N32)C1 (single isomer, unassigned)"
  Reported Property: "pIC50"
  Value Observed: "> 7.00"
- Compound: "O=C(N[C@H]1CCC[C@H]2CC[C@@H](C(=O)N[C@H]3CN(c4ncc[nH]4)C[C@@H]3F)N2C1=O)c1cc2cc([C@H](F)P(=O)(O)O)ccc2s1"
  Reported Property: "pIC50"
  Value Observed: "> 7.00"
- Compound: "O=C(N[C@H]1CCC[C@H]2CC[C@@H](C(=O)N3CC(c4ncncc4F)C3)N2C1=O)c1cc2cc(C(F)P(=O)(O)O)ccc2s1 (stereo partly shown)"
  Reported Property: "pIC50"
  Value Observed: "6.00 to 7.00"
- Compound: "COCC(NC(=O)[C@@H]1CC[C@@H]2CCCC[C@H](NC(=O)c3cc4cc(C(F)(F)P(=O)(O)O)ccc4s3)C(=O)N21)c1c[nH]c2ncccc12 (stereo partly shown)"
  Reported Property: "pIC50"
  Value Observed: "5.00 to 6.00"
- Compound: "Cc1ccncc1C1CN(C(=O)[C@@H]2CC[C@@H]3C[C@H](C)C[C@H](NC(=O)c4cc5cc([C@@H](F)P(=O)(O)O)ccc5s4)C(=O)N32)C1 (single isomer, unassigned)"
  Reported Property: "pIC50"
  Value Observed: "> 7.00"
